biological target: human PR-B (Homo sapiens, UniProt P06401); construct: expressed in transfected cells; host or cells: CV-1 cells (African green monkey kidney fibroblasts), transient transfection; test: Co-transfection assay, PR agonist activity; assay type: cell-based; conditions: CV-1, read-out: PR Agonist CV-1 Cells Efficacy (%);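 further: CV-1 cells (African green monkey kidney) co-transfected with receptor plasmid and hormone-responsive firefly luciferase reporter, agonism read as compound-dependent rise in luciferase signal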
Sequence (P06401 whole entry): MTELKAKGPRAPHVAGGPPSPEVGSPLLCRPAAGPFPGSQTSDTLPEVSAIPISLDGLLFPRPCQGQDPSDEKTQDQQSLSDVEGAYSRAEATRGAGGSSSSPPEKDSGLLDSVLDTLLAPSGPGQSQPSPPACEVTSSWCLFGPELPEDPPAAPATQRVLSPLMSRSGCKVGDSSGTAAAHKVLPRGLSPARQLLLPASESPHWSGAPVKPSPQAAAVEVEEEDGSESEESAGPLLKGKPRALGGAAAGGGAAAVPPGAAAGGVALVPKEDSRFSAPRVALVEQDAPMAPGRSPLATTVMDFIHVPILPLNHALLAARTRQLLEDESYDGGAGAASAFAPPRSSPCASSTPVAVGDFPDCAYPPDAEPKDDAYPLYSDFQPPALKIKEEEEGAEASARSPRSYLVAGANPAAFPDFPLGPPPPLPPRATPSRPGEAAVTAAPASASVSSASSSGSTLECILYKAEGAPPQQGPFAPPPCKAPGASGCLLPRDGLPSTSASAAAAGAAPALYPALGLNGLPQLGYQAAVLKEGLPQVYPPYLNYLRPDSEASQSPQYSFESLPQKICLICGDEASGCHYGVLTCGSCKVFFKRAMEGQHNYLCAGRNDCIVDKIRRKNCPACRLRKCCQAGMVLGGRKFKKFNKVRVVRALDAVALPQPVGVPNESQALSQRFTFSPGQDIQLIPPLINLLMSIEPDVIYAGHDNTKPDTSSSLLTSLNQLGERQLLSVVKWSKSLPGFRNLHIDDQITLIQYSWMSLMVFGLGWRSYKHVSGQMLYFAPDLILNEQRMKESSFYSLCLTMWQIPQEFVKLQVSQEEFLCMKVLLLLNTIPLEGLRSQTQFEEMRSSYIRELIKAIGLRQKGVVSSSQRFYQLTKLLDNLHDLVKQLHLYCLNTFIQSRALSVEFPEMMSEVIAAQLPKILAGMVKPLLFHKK
Quantity Name: Emax

molecule="CC1C(=O)C(C)(C)Nc2ccc(-c3cc(F)cc(C#N)c3)cc21 (stereo not drawn)" system_under_test="human PR-B (Homo sapiens, UniProt P06401)" quantity_name=Emax result="< 20%"
molecule=CC1=CC(C)(C)Nc2ccc(-n3cnc(Cl)c3Cl)cc21 system_under_test="human PR-B (Homo sapiens, UniProt P06401)" quantity_name=Emax result="< 20%"
molecule="CC#C[C@]1(O)CC[C@H]2[C@@H]3CCC4=CC(=O)CCC4=C3[C@@H](c3ccc(N(C)C)cc3)C[C@@]21C [RU486, reference compound]" system_under_test="human PR-B (Homo sapiens, UniProt P06401)" quantity_name=Emax result="< 20%"
